Numbers sourced from ChEMBL document CHEMBL3808331.

target: Rap guanine nucleotide exchange factor 4 (Homo sapiens, UniProt Q8WZA2); test: Inhibition of EPAC2 (unknown origin) assessed as reduction in cAMP-mediated guanine nucleotide exchange factor activity in presence of C-terminal truncated Rap1B (1 to 167 residues)-BODIPY-GDP by microplate reader analysis
Sequence (Q8WZA2 whole entry, the tested form may be a part): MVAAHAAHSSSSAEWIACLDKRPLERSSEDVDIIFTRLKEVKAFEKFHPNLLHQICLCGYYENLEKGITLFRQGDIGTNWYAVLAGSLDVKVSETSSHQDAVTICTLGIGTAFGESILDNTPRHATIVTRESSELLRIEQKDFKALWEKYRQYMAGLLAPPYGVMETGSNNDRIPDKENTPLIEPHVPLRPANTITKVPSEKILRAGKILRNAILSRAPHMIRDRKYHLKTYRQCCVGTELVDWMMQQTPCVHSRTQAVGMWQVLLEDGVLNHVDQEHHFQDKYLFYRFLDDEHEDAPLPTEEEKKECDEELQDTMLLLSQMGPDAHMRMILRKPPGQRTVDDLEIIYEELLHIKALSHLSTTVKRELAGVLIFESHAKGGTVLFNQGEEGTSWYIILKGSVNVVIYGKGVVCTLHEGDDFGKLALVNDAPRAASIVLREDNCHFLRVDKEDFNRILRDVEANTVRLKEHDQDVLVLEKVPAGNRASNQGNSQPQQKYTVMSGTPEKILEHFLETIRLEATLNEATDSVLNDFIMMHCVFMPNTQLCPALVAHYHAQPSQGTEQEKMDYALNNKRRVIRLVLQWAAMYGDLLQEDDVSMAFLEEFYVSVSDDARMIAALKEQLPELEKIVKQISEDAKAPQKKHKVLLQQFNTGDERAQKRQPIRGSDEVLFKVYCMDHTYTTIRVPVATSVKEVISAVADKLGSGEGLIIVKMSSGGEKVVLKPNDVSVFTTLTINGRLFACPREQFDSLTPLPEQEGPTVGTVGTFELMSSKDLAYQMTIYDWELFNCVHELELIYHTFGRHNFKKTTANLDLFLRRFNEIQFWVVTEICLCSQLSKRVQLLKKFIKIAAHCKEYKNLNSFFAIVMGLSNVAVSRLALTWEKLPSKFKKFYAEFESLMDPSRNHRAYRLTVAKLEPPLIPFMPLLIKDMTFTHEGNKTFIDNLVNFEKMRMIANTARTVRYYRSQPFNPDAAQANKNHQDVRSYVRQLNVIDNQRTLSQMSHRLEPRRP
Attribute: IC50

substance-smiles | IC50 [µM]
Cc1cc(C)c(Nc2cccc(Cl)c2C)c(C)c1 | 3.6
Cc1cc(C)c(Nc2cc(C(F)(F)F)cc(C(F)(F)F)c2)c(C)c1 | 1.3
Cc1cc(C)c(Nc2c(C)cc(C)cc2C)c(C)c1 | 1.7
Cc1cc(C)c(Nc2ccc(Cl)c(C(F)(F)F)c2)c(C)c1 | 1

###

target: Rap guanine nucleotide exchange factor 4 (Homo sapiens, UniProt Q8WZA2); assay: Inhibition of 8-NBD-cAMP binding to EPAC2 (unknown origin) by microplate reader analysis
outcome-measure: IC50 (nM)

substance-smiles | target-entity | units | value-observed
Cc1cc(C)c(Nc2cccc(Br)c2)c(C)c1 | Rap guanine nucleotide exchange factor 4 (Homo sapiens, UniProt Q8WZA2) | nM | 1500
Cc1cc(C)cc(Nc2c(C)cc(C)cc2C)c1 | Rap guanine nucleotide exchange factor 4 (Homo sapiens, UniProt Q8WZA2) | nM | 1700
Cc1cc(C)c(Nc2c(C)cc(Cl)cc2Cl)c(C)c1 | Rap guanine nucleotide exchange factor 4 (Homo sapiens, UniProt Q8WZA2) | nM | 700
Cc1cc(C)c(Nc2cccc(O)c2)c(C)c1 | Rap guanine nucleotide exchange factor 4 (Homo sapiens, UniProt Q8WZA2) | nM | 46000
Cc1cc(C)c(Nc2cccc(C(F)(F)F)c2)c(C)c1 | Rap guanine nucleotide exchange factor 4 (Homo sapiens, UniProt Q8WZA2) | nM | 2000

###

biological target: Rap guanine nucleotide exchange factor 4 (Homo sapiens, UniProt Q8WZA2); experiment: Inhibition of 8-NBD-cAMP binding to EPAC2 (unknown origin) by microplate reader analysis
Attribute: log10 IC50
outcome-measure: log10 IC50 (log10 of the value in nM)

substance-smiles | outcome-measure | value-observed
Cc1ccc(Nc2c(C)cc(C)cc2C)c(C)c1 | log10 IC50 | 3.34
Cc1cc(C)c(Nc2ccc(Cl)c(Cl)c2)c(C)c1 | log10 IC50 | 3.04
Cc1cc(C)c(Nc2cccc(C)c2C)c(C)c1 | log10 IC50 | 3.00
CCc1cccc(Nc2c(C)cc(C)cc2C)c1 | log10 IC50 | 3.26
Cc1cc(C)c(Nc2ccc(Cl)c(C(F)(F)F)c2)c(C)c1 | log10 IC50 | 2.60
Cc1cc(C)c(Nc2cc(Cl)c(Cl)c(Cl)c2)c(C)c1 | log10 IC50 | 3.04
Cc1cc(C)c(Nc2cccc(Cl)c2C)c(C)c1 | log10 IC50 | 2.70
Cc1cc(C)c(Nc2cc(Cl)cc(C(F)(F)F)c2)c(C)c1 | log10 IC50 | 2.70
Cc1cc(C)c(Nc2ccc(Br)cc2)c(C)c1 | log10 IC50 | 3.20
Cc1cc(C)c(Nc2ccc(F)c(Cl)c2)c(C)c1 | log10 IC50 | 3.46
Cc1cc(C)c(Nc2ccc3c(c2)CCC3)c(C)c1 | log10 IC50 | 3.26
Cc1cc(C)c(Nc2c(C)cc(C)cc2C)c(C)c1 | log10 IC50 | 2.60
Cc1cc(C)c(Nc2cc(F)cc(Cl)c2)c(C)c1 | log10 IC50 | 3.46
Cc1cc(C)c(Nc2cc(C(F)(F)F)cc(C(F)(F)F)c2)c(C)c1 | log10 IC50 | 2.78
Cc1cc(C)c(Nc2ccc(Cl)c(F)c2)c(C)c1 | log10 IC50 | 3.52
Cc1cc(C)c(Nc2cc(C)ccc2C)c(C)c1 | log10 IC50 | 3.26
COc1cccc(Nc2c(C)cc(C)cc2C)c1 | log10 IC50 | 4.03
Cc1cc(C)c(Nc2cccc(F)c2)c(C)c1 | log10 IC50 | 3.76
Cc1cc(C)c(Nc2ccc(F)c(F)c2)c(C)c1 | log10 IC50 | 3.94
Cc1cc(C)c(Nc2ccc(C)c(Cl)c2)c(C)c1 | log10 IC50 | 3.26
Cc1cc(C)c(Nc2cc(Cl)ccc2C)c(C)c1 | log10 IC50 | 3.15
Cc1cc(C)c(Nc2cccc(N)c2)c(C)c1 | log10 IC50 | 4.53
Cc1cc(C)c(Nc2c(F)cc(F)cc2F)c(C)c1 | log10 IC50 | 3.43
Cc1cc(C)c(Nc2cc(F)cc(F)c2)c(C)c1 | log10 IC50 | 3.76
Cc1cc(C)c(Nc2cc(F)c(F)c(F)c2)c(C)c1 | log10 IC50 | 3.48
